assay: Mycobacterium tuberculosis growth inhibition, primary screen (AID 1259343); details: at 10 µM, active compounds read high
In all, about 6,200 compounds went through this assay and about 2,900 (47%) were called active. The set was probably picked from earlier hits. The list shows a part of the results.
Collected inhibition values appear next to each entry.
Value Type: inhibition (%)

1) COCCCn1c(=S)[nH]c2sc3c(c2c1=O)CCCC3 : 20.5
2) Brc1ccc2c(c1)C1CC(c3cccs3)=NN1C(c1cccnc1)O2 (configuration not stated) : 97.9
3) Cc1cccc(-n2cc(CN3CCN(C(=O)c4ccco4)CC3)c(-c3cccc(F)c3)n2)c1 : 24.8
4) Cc1nn(CC(C)C)c2sc(C(=O)NCC3CC3)cc12 : 3.65
5) Cc1ccc(C2=NN3C(C2)c2cc(Cl)ccc2OC3c2ccncc2)cc1 (configuration not stated) : -54.8
6) COc1ccc(/C=C2\C=C(c3ccccc3)N(c3ccc4ccccc4c3)C2=O)cc1 : 74.9
7) CCn1c(=S)[nH]c2sc3c(c2c1=O)CCCC3 : 38.1
8) O=C1c2sc3nnc(-c4ccccc4)c(=O)n3c2C(=O)N1c1cccc(Cl)c1Cl : 90.4
9) CCOC(=O)CSc1ncnc2c1nnn2Cc1ccc(F)cc1 : -18.2
10) Cc1cc(-c2csc(NC3CCCC3)n2)c(C)n1CC1CCCO1 (configuration not stated) : 23.4
11) O=C(NCCc1ccccc1Cl)c1cccc2ccnn12 : 44.4
12) O=S(=O)(CCCOc1ccc2c(c1)OCO2)NC1CCCCCC1 : 93

---

experiment: Mycobacterium tuberculosis growth inhibition, primary screen (AID 1259343); conditions: at 10 µM
The whole screen tested about 6,200 compounds, of which about 2,900 (47%) were called active. Cut-off read from the data, not from the text of the source: active = inhibition above about 50%; inactive = the rest. The set was probably picked from earlier hits. This is one part of the list.
Outcomes: True = active, False = inactive

1. Oc1ccc(Nc2nc(N3CCCC3)c3ccccc3n2)cc1 : True
2. Cc1c(C(=O)NCc2ccc(Cl)c(Cl)c2)sc(=O)n1Cc1ccccc1F : False
3. Cc1ccc(S(=O)(=O)NCC(C)n2nc(C)cc2C)cc1 (stereo unspecified) : False
4. Clc1ccccc1CSc1ncnc2c1nnn2Cc1ccccc1 : False
5. c1ccc(CCc2cn(CC3COc4ccccc4O3)nn2)cc1 (stereo unspecified) : True
6. CC1CCN(Cc2ncc(-c3ccccc3)o2)C2CCCCC12 (stereo unspecified) : True

---

experiment: Mycobacterium tuberculosis growth inhibition, primary screen (AID 1259343); conditions: at 10 µM, active compounds read high
The campaign covered roughly 6,200 compounds. About 2,900 (47%) were called active. So high a share suggests a set chosen from earlier hits. The list shows a part of the results.
Value Type: inhibition (%)

1. Cc1ccc(-c2cc(C(F)F)nc(S(C)(=O)=O)n2)cc1 : 90.4
2. COC(=O)C1CCN(C(=O)COc2ccc(OCc3ccccc3)cc2)CC1 : 81.6
3. COc1cc(NC(=O)c2ccc(CN3CC=CC3)cc2)cc(OC)c1 : 36.1
4. Nc1cccc2c([N+](=O)[O-])cccc12 : 8.31
5. COC(=O)c1ccc(F)c(NS(=O)(=O)c2ccc(Cl)c(C(F)(F)F)c2)c1 : 41.9
6. Oc1ccc(C=Cc2ccncc2)cc1 : 37.5
7. CCOC(=O)c1ccc(NC(=O)CN2CCOC(C)C2)cc1 (stereo unspecified) : 92
8. O=[N+]([O-])c1ccc(Oc2ccc([N+](=O)[O-])cc2)cc1 : 98.6
9. Nc1cccc2c(Oc3ccc([N+](=O)[O-])cc3)cccc12 : 68.4
10. O=c1[nH]c(=S)[nH]c2nc(-c3cccs3)cc(C(F)(F)F)c12 : 34.4
11. Cc1c(Cl)c(=O)oc2cc(O)ccc12 : -23

---

assay: Mycobacterium tuberculosis growth inhibition, primary screen (AID 1259343); details: at 10 µM, active compounds read high
About 2,900 (47%) of roughly 6,200 compounds were called active. The set was probably picked from earlier hits. This is one part of the list.
Collected inhibition values appear next to each entry.
Value Type: inhibition

1) CCCN(CC(=O)N(Cc1ccccc1)Cc1sccc1C)C(=O)Nc1ccc(C(=O)OCC)cc1 : 89.4% (active)
2) COc1cccc(C=NNc2nc(-c3ccccc3)c(C)s2)c1OC : 91.8% (active)
3) CCCCN(C)S(=O)(=O)c1ccc(NC(=O)c2ccc(OC)nc2)cc1 : 88% (active)

---

Collected inhibition values appear next to each entry.
assay: Mycobacterium tuberculosis growth inhibition, primary screen (AID 1259343); conditions: at 10 µM, active compounds read high
Screen size: about 6,200 compounds; about 2,900 (47%) were called active. The set was probably picked from earlier hits. This is one part of the list.
Value Type: inhibition (%)

1. O=c1oc2c(c(O)c1-c1ccccc1)-c1ccccc1CC2 : 81
2. c1cc2cc(CNc3nc(NCC4CC4)nc4ccsc34)ccc2o1 : 76.9
3. Cc1c(-c2ccccc2)sc2ncn(CC(=O)N3CCCCC3C)c(=O)c12 (stereo unspecified) : 48.6
4. C=CCc1c(C)nc2c(-c3cccc(Cl)c3)c(C)[nH]n2c1=O : 99.8
5. NC(=O)c1cc2c(cc1-c1cccc(C(F)(F)F)c1)OCO2 : 22.9
6. Clc1ccc(-c2noc(CSc3nncs3)n2)cc1 : -30.4
7. C/C=C/c1cc(C(=O)Nc2nc(C)cs2)cc(OC)c1OC : 57.2
8. O=C(NCc1ccc(OCC2CC2)nc1)c1cccc2cn[nH]c12 : 79.9
9. O=c1ccc(-c2cccc([N+](=O)[O-])c2)nn1Cc1c(F)cccc1Cl : 21.1
10. CCOC(=O)c1c(N)sc(C(N)=O)c1C : 84.7
11. CN(Cc1nnc(-c2ccc(F)cc2)o1)C1C2CCOC2C1(C)C (stereo unspecified) : 21.1
12. CC1(C(=O)NCc2cccc3ccccc23)CCN1CCCc1ccccc1 (stereo unspecified) : 32.3
13. Cn1c(-c2cccc(C(F)(F)F)c2)cc2c(Nc3ccncc3)nccc21 : 97.1
14. CC(C)c1ccc(Nc2cc3c(cn2)cc(-c2cccnc2)n3C)cc1 : 47.9
15. CC(=O)Oc1ccc(CN2C(=O)C(CCc3ccccc3)ON=C2c2cnccn2)cc1 (stereo unspecified) : 41.4
16. FC(F)(F)c1ccc(NCc2csc(-c3ccco3)n2)cc1 : 89.6
